This collection of values is drawn from patent US6906097B2.

# measured target: hEP1 (Homo sapiens, UniProt P34995)
# Sequence (P34995 1-402): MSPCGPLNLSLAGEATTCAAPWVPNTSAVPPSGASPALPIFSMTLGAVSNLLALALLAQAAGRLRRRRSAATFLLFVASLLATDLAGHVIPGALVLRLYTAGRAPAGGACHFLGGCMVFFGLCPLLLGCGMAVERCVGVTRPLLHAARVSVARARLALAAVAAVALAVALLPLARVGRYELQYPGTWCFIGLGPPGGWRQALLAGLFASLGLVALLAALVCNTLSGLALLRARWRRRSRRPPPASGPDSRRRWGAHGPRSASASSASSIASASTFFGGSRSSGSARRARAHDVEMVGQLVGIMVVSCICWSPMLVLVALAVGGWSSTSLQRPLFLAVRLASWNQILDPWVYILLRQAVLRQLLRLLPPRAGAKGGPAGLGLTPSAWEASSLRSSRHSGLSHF
# experiment: Functional data, human recombinant EP1 receptor stable transfectants
// reported EC50 for each item listed
observed property: EC50

> print(dat)
                                   molecule  observed.property  observed
1  O=C(O)CCCCCCN1C(=O)CC[C@@H]1CCC(O)Cc1cccc(Cl)c1 (stereo partly drawn)               EC50   > 10 µM
2  O=C(O)CCCCCCN1C(=O)CC[C@@H]1CCC(=O)Cc1cccc(C(F)(F)F)c1               EC50   > 10 µM
3  O=C(O)CCCCCCN1C(=O)CC[C@@H]1/C=C/C(=O)Cc1cccc(C(F)(F)F)c1               EC50   > 10 µM

---

# measured target: hEP2 (Homo sapiens, UniProt P43116)
# Construct: expressed in transfected cells
# Sequence (P43116 whole entry): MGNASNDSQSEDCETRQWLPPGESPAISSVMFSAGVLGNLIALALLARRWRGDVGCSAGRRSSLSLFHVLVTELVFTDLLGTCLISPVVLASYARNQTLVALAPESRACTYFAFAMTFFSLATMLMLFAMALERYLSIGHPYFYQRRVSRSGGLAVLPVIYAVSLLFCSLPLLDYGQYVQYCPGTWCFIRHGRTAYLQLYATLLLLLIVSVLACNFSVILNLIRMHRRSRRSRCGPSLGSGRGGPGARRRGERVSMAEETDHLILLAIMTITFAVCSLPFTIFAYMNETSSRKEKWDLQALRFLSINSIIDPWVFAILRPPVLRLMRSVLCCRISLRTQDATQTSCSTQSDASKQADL
# experiment: Radioligand binding, hEP2
# assay context: [3H]PGE2 competition
pIC50: −log10 of the molar value.
Here the recorded pIC50 is given for each entry.
observed property: pIC50

> print(dat)
                                   compound                      measured.target  observed.property  observed
1  O=C(O)CCCCCCN1C(=O)CC[C@@H]1/C=C/C(O)Cc1cccc(Cl)c1 (some centres unmarked) [Example 1a]  hEP2 (Homo sapiens, UniProt P43116)              pIC50    < 5.00
2  O=C(O)CCCCCCN1C(=O)CC[C@@H]1/C=C/C(=O)Cc1cccc(C(F)(F)F)c1 [Example 7a]  hEP2 (Homo sapiens, UniProt P43116)              pIC50    < 5.00

---

Sequence of the target: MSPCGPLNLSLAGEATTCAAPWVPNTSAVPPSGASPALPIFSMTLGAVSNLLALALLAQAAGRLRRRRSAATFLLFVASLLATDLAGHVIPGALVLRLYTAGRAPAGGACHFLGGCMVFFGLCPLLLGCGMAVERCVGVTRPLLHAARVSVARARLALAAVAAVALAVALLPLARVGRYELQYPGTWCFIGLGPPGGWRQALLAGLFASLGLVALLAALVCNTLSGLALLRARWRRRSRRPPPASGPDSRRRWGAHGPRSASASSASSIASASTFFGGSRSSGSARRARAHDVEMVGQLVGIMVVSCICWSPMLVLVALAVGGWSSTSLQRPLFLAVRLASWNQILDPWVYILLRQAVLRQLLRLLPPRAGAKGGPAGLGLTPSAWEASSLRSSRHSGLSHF
observed property: IC50 (µM)

> print(dat)
                                   compound  observed.property  observed
1  O=C(O)CCCCCCN1C(=O)CC[C@@H]1CCC(O)Cc1cccc(Cl)c1 (stereo partly shown)               IC50       5.8
